system: Staphylococcus aureus; assay: Minimum inhibitory concentration of compound tested for antibacterial activity against Staphylococcus aureus 209 P(FDA); type: functional
Below, each entry is listed alongside its reported MIC.

Compound	System Name	Relation Qualifier	MIC (µg/mL)
CO[C@H]1/C=C/O[C@@]2(C)Oc3c(C)c(O)c4c(O)c(cc(O)c4c3C2=O)NC(=O)/C(C)=C\C=C\[C@H](C)[C@H](O)[C@@H](C)[C@@H](O)[C@@H](C)[C@H](OC(C)=O)[C@@H]1C	Staphylococcus aureus	<	0.005
COC1/C=C/OC2(C)Oc3c(C)c(O)c4c(c3C2=O)C(=O)C(C(=O)N(C)C)=C(NC(=O)/C(C)=C\C=C\C(C)C(O)C(C)C(O)C(C)C(OC(C)=O)C1C)C4=O (centres undefined)	Staphylococcus aureus	=	0.025
COC(=O)C1=C2NC(=O)/C(C)=C\C=C\C(C)C(O)C(C)C(O)C(C)C(OC(C)=O)C(C)C(OC)/C=C/OC3(C)Oc4c(C)c(O)c(c(c4C3=O)C1=O)C2=O (centres undefined)	Staphylococcus aureus	=	0.05
COC1/C=C/OC2(C)Oc3c(C)c(O)c4c(c3C2=O)C(=O)C(C(=O)NN(C)C)=C(NC(=O)/C(C)=C\C=C\C(C)C(O)C(C)C(O)C(C)C(OC(C)=O)C1C)C4=O (centres undefined)	Staphylococcus aureus	<	0.005
COC1/C=C/OC2(C)Oc3c(C)c(O)c4c(c3C2=O)C(=O)C(C(=O)N2CCN(C)CC2)=C(NC(=O)/C(C)=C\C=C\C(C)C(O)C(C)C(O)C(C)C(OC(C)=O)C1C)C4=O (centres undefined)	Staphylococcus aureus	=	0.1
COC1/C=C/OC2(C)Oc3c(C)c(O)c4c(c3C2=O)C(=O)C(C(=O)Nc2ccc(Br)cc2)=C(NC(=O)/C(C)=C\C=C\C(C)C(O)C(C)C(O)C(C)C(OC(C)=O)C1C)C4=O (centres undefined)	Staphylococcus aureus	=	0.1

---

system: Escherichia coli; assay: Minimum inhibitory concentration of compound tested for antibacterial activity against Escherichia coli ML/35; format: functional
Below, each entry is listed alongside its reported MIC.

Molecule	MIC
COC1/C=C/OC2(C)Oc3c(C)c(O)c4c(c3C2=O)C(=O)C(C(=O)NN(C)C)=C(NC(=O)/C(C)=C\C=C\C(C)C(O)C(C)C(O)C(C)C(OC(C)=O)C1C)C4=O (stereo not given)	> 50 µg/mL
COC1/C=C/OC2(C)Oc3c(C)c(O)c4c(c3C2=O)C(=O)C(C(=O)N(C)N2CCCCC2)=C(NC(=O)/C(C)=C\C=C\C(C)C(O)C(C)C(O)C(C)C(OC(C)=O)C1C)C4=O (stereo not given)	> 50 µg/mL
COC1/C=C/OC2(C)Oc3c(C)c(O)c4c(c3C2=O)C(=O)C(C(=O)N(C)C)=C(NC(=O)/C(C)=C\C=C\C(C)C(O)C(C)C(O)C(C)C(OC(C)=O)C1C)C4=O (stereo not given)	> 50 µg/mL
CO[C@H]1/C=C/O[C@@]2(C)Oc3c(C)c(O)c4c(O)c(cc(O)c4c3C2=O)NC(=O)/C(C)=C\C=C\[C@H](C)[C@H](O)[C@@H](C)[C@@H](O)[C@@H](C)[C@H](OC(C)=O)[C@@H]1C	100 µg/mL
COC1/C=C/OC2(C)Oc3c(C)c(O)c4c(c3C2=O)C(=O)C(C(=O)N2CCN(C)CC2)=C(NC(=O)/C(C)=C\C=C\C(C)C(O)C(C)C(O)C(C)C(OC(C)=O)C1C)C4=O (stereo not given)	> 50 µg/mL
